# pIC50 measurements, system: Factor XIa (Homo sapiens)
# Sequence (P03951 388-625 limits assumed): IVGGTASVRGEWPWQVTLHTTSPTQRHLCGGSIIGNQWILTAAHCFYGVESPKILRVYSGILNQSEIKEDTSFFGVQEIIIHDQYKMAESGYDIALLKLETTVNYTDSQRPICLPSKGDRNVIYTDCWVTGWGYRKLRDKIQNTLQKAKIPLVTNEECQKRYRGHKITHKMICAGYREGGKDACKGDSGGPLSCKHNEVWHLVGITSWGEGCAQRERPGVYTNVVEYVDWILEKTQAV
# Sequence (P03951 19-387 partner limits assumed): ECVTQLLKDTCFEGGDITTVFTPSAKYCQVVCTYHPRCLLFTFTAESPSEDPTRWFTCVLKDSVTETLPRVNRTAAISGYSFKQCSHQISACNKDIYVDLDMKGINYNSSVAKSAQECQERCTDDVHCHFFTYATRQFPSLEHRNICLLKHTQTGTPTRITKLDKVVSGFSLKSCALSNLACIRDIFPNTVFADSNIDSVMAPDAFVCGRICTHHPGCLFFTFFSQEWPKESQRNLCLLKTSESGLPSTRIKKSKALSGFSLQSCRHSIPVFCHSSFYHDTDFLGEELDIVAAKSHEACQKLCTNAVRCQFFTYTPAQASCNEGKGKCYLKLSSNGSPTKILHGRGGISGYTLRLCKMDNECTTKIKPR
pIC50: −log10 of the molar value.
readout_label: pIC50

These recorded examples may help you get a feel for the data.
O=C(Nc1ccc(-c2cnn[nH]2)cc1)[C@@H]1CCC2CC(c3c(-n4cnnn4)ccc(Cl)c3F)=CC(=O)N21 (mixture of isomers) [ID No. 68]    8.77
CC1(C)C[C@@H](C(=O)Nc2ccc3nccnc3c2)N2C(=O)C=C(c3c(-n4cnnn4)ccc(Cl)c3F)CC21 (single isomer, unassigned) [ID No. 59]    7.08
O=C(Nc1ccc(-c2nc(=O)o[nH]2)cc1)[C@@H]1CCC2CC(c3c(-n4cnnn4)ccc(Cl)c3F)=CC(=O)N21 (mixture of isomers) [ID No. 76]    9.52
CO[C@@H]1C[C@@H](C(=O)Nc2ccc3nn(C)cc3c2)N2C(=O)C=C(c3c(-n4cnnn4)ccc(Cl)c3F)CC12 (mixture of isomers) [ID No. 44]    7.96
O=C(Nc1ccc2n[nH]nc2c1)[C@@H]1CCC2CC(c3c(-n4cnnn4)ccc(Cl)c3F)=CC(=O)N21 (mixture of isomers) [ID No. 56]    8.27

a: O=C(Nc1ccc2nccc(O)c2c1)[C@@H]1CC[C@@H]2CC(c3c(-n4cnnn4)ccc(Cl)c3F)=CC(=O)N21 [ID No. 9]
b: O=C(Nc1ccc(-c2ncc[nH]2)cc1)[C@@H]1CCC2CC(c3c(-n4cnnn4)ccc(Cl)c3F)=CC(=O)N21 (mixture of isomers) [ID No. 74]
c: O=C(Nc1ccc(-c2nnn[nH]2)cc1)[C@@H]1CCC2CC(c3c(-n4cnnn4)ccc(Cl)c3F)=CC(=O)N21 (single isomer, unassigned) [ID No. 66]
d: O=C(Nc1ccc2[nH]nnc2c1)[C@@H]1CC[C@@H]2CC(c3c(-n4cnnn4)ccc(Cl)c3F)=CC(=O)N21 [ID No. 21]
Query: Exam item: list the entries in increasing order of pIC50. Write the labels in rank order as requested.
Response: a, d, b, c
(a: 7.78, d: 8.04, b: 8.70, c: 9.10)

###

# pIC50 per entry for Factor XIa (Homo sapiens, UniProt P03951)
pIC50: −log10 of the molar value.
readout_label: pIC50

NC(=O)c1ccc(NC(=O)[C@@H]2CCC3CC(c4c(-n5cnnn5)ccc(Cl)c4F)=CC(=O)N32)cc1 (mixture of isomers)    8.13

1: Cc1nc(-c2ccc(NC(=O)[C@@H]3CC[C@@H]4CC(c5c(-n6cnnn6)ccc(Cl)c5F)=CC(=O)N43)cc2)co1
2: Cn1nncc1-c1ccc(NC(=O)[C@@H]2CCC3CC(c4c(-n5cnnn5)ccc(Cl)c4F)=CC(=O)N32)cc1 (mixture of isomers)
Query: Would you kindly point out which of 1 and 2 has the smaller pIC50 figure? Record your answer as the label of the chosen record.
Response: 2
(2: 7.34, 1: 7.59)

###

Molecular target: human plasma kallikrein (Homo sapiens, UniProt P03952)
Sequence (P03952 391-638 limits assumed): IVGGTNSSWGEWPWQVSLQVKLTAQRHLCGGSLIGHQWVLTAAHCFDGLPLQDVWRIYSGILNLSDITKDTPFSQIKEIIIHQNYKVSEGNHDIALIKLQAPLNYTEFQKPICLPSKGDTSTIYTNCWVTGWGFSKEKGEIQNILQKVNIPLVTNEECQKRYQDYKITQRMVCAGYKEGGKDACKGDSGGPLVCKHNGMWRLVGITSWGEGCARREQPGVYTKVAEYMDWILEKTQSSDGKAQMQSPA
Sequence (P03952 20-390 partner limits assumed): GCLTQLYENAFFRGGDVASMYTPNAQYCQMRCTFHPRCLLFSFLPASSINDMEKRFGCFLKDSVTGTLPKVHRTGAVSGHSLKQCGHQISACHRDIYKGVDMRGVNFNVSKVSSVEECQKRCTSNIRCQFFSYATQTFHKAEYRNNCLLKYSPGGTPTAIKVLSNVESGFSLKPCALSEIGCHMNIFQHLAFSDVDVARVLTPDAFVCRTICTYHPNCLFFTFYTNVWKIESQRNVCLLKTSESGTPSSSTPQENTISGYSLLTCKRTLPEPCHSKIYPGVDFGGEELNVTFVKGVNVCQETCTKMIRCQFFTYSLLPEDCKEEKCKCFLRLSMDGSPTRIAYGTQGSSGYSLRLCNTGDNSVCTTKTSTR
Assay: Kallikrein inhibition assay utilizing a quenched AMC peptide substrate (FLINT)
Details: 11-point, 3-fold serial dilution, top 1 μM; 30 min preincubation; 2 nM kallikrein; 50 μM Z-Gly-Pro-Arg-AMC; kinetic reads over 30 min
readout_label: IC50 (µM)

a: C[C@@H](O)c1cnc2cc(NC(=O)[C@@H]3CCC4CC(c5c(-n6cnnn6)ccc(Cl)c5F)=CC(=O)N43)ccc2n1 (relative stereo) [ID No. 1]
b: Cn1nncc1-c1ccc(NC(=O)[C@@H]2CCC3CC(c4c(-n5cnnn5)ccc(Cl)c4F)=CC(=O)N32)cc1 (mixture of isomers)
c: CN(O)C(=O)c1ccc(NC(=O)[C@@H]2CCC3CC(c4c(-n5cnnn5)ccc(Cl)c4F)=CC(=O)N32)cc1 (mixture of isomers)
Query: Put the above molecules in order of rising IC50, beginning with the smallest. Provide the ranking by listing each label in its place in the requested order.
Response: a, b, c
(a: 0.0097 µM, b: 0.156 µM, c: 0.279 µM)

I: CC1C(=O)Nc2c(NC(=O)[C@@H]3CC[C@@H]4CC(c5c(-n6cc(C(F)(F)F)nn6)ccc(Cl)c5F)=CC(=O)N43)cccc21 (stereo partly shown)
II: O=C(Nc1ccc(-c2nc(=O)o[nH]2)cc1)[C@@H]1CCC2CC(c3c(-n4cnnn4)ccc(Cl)c3F)=CC(=O)N21 (single isomer, unassigned) [ID No. 63]
Query: Among I and II , whose measured IC50 is the smaller figure? Give the label of your selection.
Response: II

I: O=C(Nc1ccc2[nH]nnc2c1)[C@@H]1CC[C@@H]2CC(c3c(-n4cnnn4)ccc(Cl)c3F)=CC(=O)N21
II: CO[C@@H]1C[C@@H](C(=O)Nc2ccc3nccnc3c2)N2C(=O)C=C(c3c(-n4cnnn4)ccc(Cl)c3F)CC12 (mixture of isomers)
III: O=C(Nc1ccc2nccc(O)c2c1)[C@@H]1CC[C@@H]2CC(c3c(-n4cnnn4)ccc(Cl)c3F)=CC(=O)N21
IV: Cn1cc2cc(NC(=O)[C@@H]3CC[C@@H]4CC(c5c(-n6cnnn6)ccc(Cl)c5F)=CC(=O)N43)ccc2n1
Query: hey, can you rank those molecules up there by IC50? biggest number first please Please write the labels in the order that was asked for.
Response: IV, I, III, II
(IV: 0.169 µM, I: 0.0374 µM, III: 0.0202 µM, II: 0.0123 µM)

Each recorded value in this set is attributed to patent US12286429B2.
